Sourced from patent US10105357B2

test system: HL-60 (Acute Promyelocytic Leukemia); assay: Cell viability analysis, leukemia HL-60; type: cell-based, human; conditions: Homo sapiens, HL-60, 72 h, drug 10 μM, 72 hours, WST-1, OD450 nm; read-out: cell viability (survival rate), HL-60
Structures can show the parent of a compound that is named as a salt.
Would you kindly list viability at 10 µM for each of these compounds?
Write the answer as a number in %, unit excluded.

Which viability at 10 µM reading was recorded for the compound CCCCC(CC)CNC(=N)NC(=N)NCCCCCCNC(=N)NC(=N)NCC(CC)CCCC (stereo not drawn) [Alexidine HCl] ?
29.4

Which viability at 10 µM reading was recorded for the compound Cc1ccnc2c1NC(=O)c1cccnc1N2C1CC1 ?
98.7

Which viability at 10 µM reading was recorded for the compound CC(=O)[C@@]1(O)CC[C@H]2[C@@H]3CCC4=CC(=O)CCC4=C3[C@@H](c3ccc(N(C)C)cc3)C[C@@]21C ?
93.8

Which viability at 10 µM reading was recorded for the compound CC(=O)N[C@H]1[C@H]([C@H](O)[C@H](O)CO)OC(C(=O)O)=C[C@@H]1N=C(N)N [Zanamivir (Relenza), Zanamivir] ?
146

Which viability at 10 µM reading was recorded for the compound Nc1nc(NC2CC2)c2ncn([C@H]3C=C[C@@H](CO)C3)c2n1 [Abacavir sulfate] ?
108

Which viability at 10 µM reading was recorded for the compound Cc1cc(=O)[nH]c(=S)[nH]1 ?
106

Which viability at 10 µM reading was recorded for the compound CCCCCCCCCCCCCCCCO ?
92.2

Which viability at 10 µM reading was recorded for the compound CN1CCC(=C2c3ccccc3CCc3cccnc32)CC1 [Azatadine dimaleate] ?
113

Which viability at 10 µM reading was recorded for the compound CC(N)C12CC3CC(CC(C3)C1)C2 (stereo not drawn) ?
107
